Documented normalised viability across a set of compounds
Tested on: MFM-223
PROTOCOL_NOTES: normalised viability (% of control), CellTiter-Blue; higher = more viable cells (about 100 = DMSO control)
DETAILS: 1000 nM; incubation time: 72 h
Could you give me the number in %? Just the number is fine.

Example results:
Exercise: Entry under review: Nc1nc(Cl)nc2c1ncn2[C@H]1C[C@H](O)[C@@H](CO)O1 [Cladribine] . Reported normalised viability?
Solution: 90

Exercise: Ok, now COc1cc(Nc2ncc3c(n2)-c2ccc(Cl)cc2C(c2c(F)cccc2OC)=NC3)ccc1C(=O)O [MLN8237]
Solution: 50.7

New cases:
Exercise: Entry under review: Nc1ccn([C@@H]2O[C@H](CO)[C@@H](O)[C@@H]2O)c(=O)n1 [Cytarabine] . Reported normalised viability?
Solution: 95.6

Exercise: Ok, now Cc1ccc(F)c(NC(=O)Nc2ccc(-c3cccc4[nH]nc(N)c34)cc2)c1 [Linifanib]
Solution: 98.4

Where these numbers come from: the supplement of paper PMC4862054
